protocol: NCI Yeast Anticancer Drug Screen. Data for the CLN2oe strain (AID 163);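 note: 0% = growth of vehicle-only control cultures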
condition-parameters: S. cerevisiae CLN2oe strain, at 33.0 µM, stronger effect = higher value
The panel holds about 79,000 compounds, 15% with a hit somewhere; the sample as a whole holds those more often. Residues, ends and D or L forms follow the SMILES beside them. *: point of attachment. CH2Cl = ClC*
attribute-measured: growth inhibition (%)
Give bare numbers, in %.

Guide cases for growth inhibition, answers given:
[
  {
    "compound": "O=C1C=CC(=O)N1c1ccc(N2C(=O)C=CC2=O)cc1",
    "unit-label": "%",
    "numeric-value": 99
  },
  {
    "compound": "CC(=O)NC(CC(C)C)C(=O)NC(Cc1ccccc1)C(=O)CCl (stereo not drawn) (Ac-Leu-Phe-CH2Cl; configuration not given here)",
    "unit-label": "%",
    "numeric-value": -2
  },
  {
    "compound": "COc1ccc(/C(C#N)=C/c2ccc(OC)c(OC)c2)cc1",
    "unit-label": "%",
    "numeric-value": 0
  },
  {
    "compound": "CCOC(=O)C1=C(C)NC(C)=C(C(=O)OCC)C1c1ccccc1Cl",
    "unit-label": "%",
    "numeric-value": 56
  },
  {
    "compound": "Cc1ccc(I)cc1N=C=S",
    "unit-label": "%",
    "numeric-value": 68
  }
]

List the reported growth inhibition of each compound below.
1. O=C(N/N=C\c1c(Cl)cccc1Cl)N/N=C/c1c(Cl)cccc1Cl
2. NP1(Oc2ccc(F)cc2)=NP(N)(Oc2ccc(F)cc2)=NP(Oc2ccc(F)cc2)(Oc2ccc(F)cc2)=N1 (configuration not stated)

*A*
[-8, 53]

Below are some compounds; for each one, tell me its growth inhibition.
1. CC1C(C#N)(C#N)C(C#N)=C(N)C1(Cl)[N+](=O)[O-] (configuration not stated)
2. NC(N)=N/N=C/c1cc(Cl)cc(Cl)c1O
3. CCC(=O)N(c1ccccc1)C(C)CN1CCC(O)(c2cccc(C(F)(F)F)c2)CC1 (configuration not stated)
4. CC1CCC2(C(=O)O)CCC3(C)C(=CCC4C5(C)CC(O)C(O)C(C)(CO)C5C(O)CC43C)C2C1C (configuration not stated)
5. CCCCOC(=O)CSSCC(=O)OCCCC
6. Nc1cc(S(N)(=O)=O)ccc1SSc1ccc(S(N)(=O)=O)cc1N
7. S=c1[nH]c2c(Cl)c(Cl)c(Cl)c(Cl)c2[nH]1
8. COc1cc(N)ccc1Nc1c2ccccc2nc2ccccc12

*A*
1: 53; 2: 33; 3: 41; 4: 7; 5: 61; 6: 13; 7: 97; 8: 29

----------
Give measured growth inhibition for each item. Keep answers brief.
protocol: NCI Yeast Anticancer Drug Screen. Data for the rad50 strain (AID 155);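 note: 0% = growth of vehicle-only cultures of the same strain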
condition-parameters: S. cerevisiae rad50 strain growth inhibition; at 3.7 µM; stronger effect = higher value
The panel holds about 79,000 compounds, 15% with a hit somewhere; the sample as a whole holds those more often.
Numbers only, in %.

[
  {
    "compound": "O=C(/C=C/c1cccc(Br)c1)c1ccc(Cl)cc1",
    "numeric-value": 0
  },
  {
    "compound": "Cc1ccc(S(=O)(=O)N/N=C/C2(c3ccccc3)c3ccccc3-c3ccccc32)cc1",
    "numeric-value": 36
  },
  {
    "compound": "Cc1cc(Cl)ccc1NC(=O)/C(Cl)=C1/Sc2ccccc2NC1=O",
    "numeric-value": 24
  },
  {
    "compound": "O=C(Nc1cccc(C(F)(F)F)c1)Oc1ccc(Cl)cc1C(=O)c1ccccc1",
    "numeric-value": 17
  },
  {
    "compound": "COc1ccc(N2C(=O)CC(Cl)C2=O)cc1 (stereo not given)",
    "numeric-value": -11
  }
]

Below are some compounds; for each one, tell me its growth inhibition.
1. CCCCC(=O)c1c(O)nc2sccn2c1=O
2. CC(=O)C1=C(O)C2(C)c3c(O)c(C)c(O)c(C(C)=O)c3OC2(Sc2ccccc2)CC1=O (stereo not given)
3. CN(C)CCNc1cccc2sc3ccc(O)cc3c(=O)c12
4. CC1=CCCC2C1(C)CCC(C)C2(C)Cc1cc(O)ccc1O (stereo not given)
5. CC(=O)[C@]1(O)Cc2c(O)c3c(c(O)c2[C@@H](OC2CC(N)C(O)C(C)O2)C1)C(=O)c1c(OCc2ccccc2)cccc1C3=O (stereo not given in full)

*A*
31
20
6
19
24

Sourced from PubChem BioAssay (NCI)
